# measurement.description: solvent given as SMILES
# assay.context: in CCCCCCCO
Please provide measured solvation free energy, 298 K for the entries that follow.
Please give a number only; it is taken to be in kcal/mol.

Exercise: Query solvation free energy, 298 K for c1cc2ccc3cccc4ccc(c1)c2c34
Solution: -11.8

Exercise: Query solvation free energy, 298 K for Cc1cc(C)c(C)cc1C
Solution: -6.78

Exercise: Query solvation free energy, 298 K for c1ccc(-c2ccccc2)cc1
Solution: -8.36

Exercise: Query solvation free energy, 298 K for O=C(O)c1cc([N+](=O)[O-])ccc1Cl
Solution: -12.6

Exercise: Query solvation free energy, 298 K for O=S(=O)(c1ccccc1)c1ccccc1
Solution: -13.1

Exercise: Query solvation free energy, 298 K for COc1ccc(C(=O)O)cc1
Solution: -11.5

Exercise: Query solvation free energy, 298 K for O=[N+]([O-])c1cccc2ccccc12
Solution: -9.98

Exercise: Query solvation free energy, 298 K for c1ccc2c(c1)Sc1ccccc1S2
Solution: -11.6

Exercise: Query solvation free energy, 298 K for Nc1ccc(C(=O)O)cc1
Solution: -13.7

Exercise: Query solvation free energy, 298 K for CCCCCC
Solution: -3.33

Exercise: Query solvation free energy, 298 K for O=C(O)c1cccc([N+](=O)[O-])c1C(=O)O
Solution: -17.6

Exercise: Query solvation free energy, 298 K for CCc1ccc2c(c1)C(=O)c1ccccc1C2=O
Solution: -12.5

Exercise: Query solvation free energy, 298 K for O=c1[nH]c2ccccc2n1C1CCN(CCCC(c2ccc(F)cc2)c2ccc(F)cc2)CC1
Solution: -26.8

Exercise: Query solvation free energy, 298 K for O=C(O)c1cccc([N+](=O)[O-])c1
Solution: -11.9

Exercise: Query solvation free energy, 298 K for c1ccc2cc3ccccc3cc2c1
Solution: -10.3

Exercise: Query solvation free energy, 298 K for NC(=O)c1ccccc1O
Solution: -11.8

Exercise: Query solvation free energy, 298 K for FC(F)(F)F
Solution: 1.25

Exercise: Query solvation free energy, 298 K for CCCCC
Solution: -2.66

Exercise: Query solvation free energy, 298 K for O=C(O)c1ccc(Cl)c([N+](=O)[O-])c1
Solution: -13.1

###

# measurement.description: solvent given as SMILES
# assay.context: in CCCCO
For each record, check the reported solvation free energy, 298 K: if it is below -7 kcal/mol write class 1, else write class 0.

Exercise: Threshold test, solvation free energy, 298 K < -7 kcal/mol: CCCCl
Solution: class 0

Exercise: Threshold test, solvation free energy, 298 K < -7 kcal/mol: O=S(=O)(c1ccccc1)c1ccccc1
Solution: class 1

Exercise: Threshold test, solvation free energy, 298 K < -7 kcal/mol: CCCCC(=O)CC
Solution: class 0

Exercise: Threshold test, solvation free energy, 298 K < -7 kcal/mol: CCCCCCC
Solution: class 0

Exercise: Threshold test, solvation free energy, 298 K < -7 kcal/mol: OCC(O)C(O)C(O)CO (stereo not drawn)
Solution: class 1

Exercise: Threshold test, solvation free energy, 298 K < -7 kcal/mol: CC#N
Solution: class 0

Exercise: Threshold test, solvation free energy, 298 K < -7 kcal/mol: Nc1ccc(C(=O)O)cc1
Solution: class 1

Exercise: Threshold test, solvation free energy, 298 K < -7 kcal/mol: C1CC1
Solution: class 0

Exercise: Threshold test, solvation free energy, 298 K < -7 kcal/mol: CCO
Solution: class 0

Exercise: Threshold test, solvation free energy, 298 K < -7 kcal/mol: O=C(O)c1ccc(Cl)c([N+](=O)[O-])c1
Solution: class 1

Exercise: Threshold test, solvation free energy, 298 K < -7 kcal/mol: c1cc2ccc3cccc4ccc(c1)c2c34
Solution: class 1

Exercise: Threshold test, solvation free energy, 298 K < -7 kcal/mol: C#C
Solution: class 0

Exercise: Threshold test, solvation free energy, 298 K < -7 kcal/mol: COc1ccc(C(=O)O)cc1
Solution: class 1

Exercise: Threshold test, solvation free energy, 298 K < -7 kcal/mol: CCCCCCCCC
Solution: class 0

Exercise: Threshold test, solvation free energy, 298 K < -7 kcal/mol: O=C(Oc1ccccc1)Oc1ccccc1
Solution: class 1

Exercise: Threshold test, solvation free energy, 298 K < -7 kcal/mol: CC(C)C(C)C
Solution: class 0

Exercise: Threshold test, solvation free energy, 298 K < -7 kcal/mol: c1ccc2c(c1)Sc1ccccc1S2
Solution: class 1

Exercise: Threshold test, solvation free energy, 298 K < -7 kcal/mol: C=CC
Solution: class 0

Exercise: Threshold test, solvation free energy, 298 K < -7 kcal/mol: O=C(O)c1cccc([N+](=O)[O-])c1C(=O)O
Solution: class 1

Exercise: Threshold test, solvation free energy, 298 K < -7 kcal/mol: CCC(C)O (stereo not drawn)
Solution: class 0

Exercise: Threshold test, solvation free energy, 298 K < -7 kcal/mol: c1ccc2cc3ccccc3cc2c1
Solution: class 1

Exercise: Threshold test, solvation free energy, 298 K < -7 kcal/mol: CCOC(C)=O
Solution: class 0

Exercise: Threshold test, solvation free energy, 298 K < -7 kcal/mol: c1ccncc1
Solution: class 0

Exercise: Threshold test, solvation free energy, 298 K < -7 kcal/mol: CCCCCCCC
Solution: class 0

Exercise: Threshold test, solvation free energy, 298 K < -7 kcal/mol: CCOCC
Solution: class 0

Exercise: Threshold test, solvation free energy, 298 K < -7 kcal/mol: CCc1ccc2c(c1)C(=O)c1ccccc1C2=O
Solution: class 1

Exercise: Threshold test, solvation free energy, 298 K < -7 kcal/mol: CC(C)CCC(C)C
Solution: class 0

Exercise: Threshold test, solvation free energy, 298 K < -7 kcal/mol: FC(F)(F)F
Solution: class 0

Exercise: Threshold test, solvation free energy, 298 K < -7 kcal/mol: CCCCCC
Solution: class 0

Exercise: Threshold test, solvation free energy, 298 K < -7 kcal/mol: O=[N+]([O-])c1ccc(Cl)c(Cl)c1
Solution: class 1

Exercise: Threshold test, solvation free energy, 298 K < -7 kcal/mol: Cc1cc(C)c(C)cc1C
Solution: class 0

Exercise: Threshold test, solvation free energy, 298 K < -7 kcal/mol: C=CC(C)C
Solution: class 0

Exercise: Threshold test, solvation free energy, 298 K < -7 kcal/mol: CC(C)=O
Solution: class 0

Exercise: Threshold test, solvation free energy, 298 K < -7 kcal/mol: CCI
Solution: class 0

Exercise: Threshold test, solvation free energy, 298 K < -7 kcal/mol: CCC(C)C(=O)OC1CC(C)C=C2C=CC(C)C(CCC3CC(O)CC(=O)O3)C21 (stereo not drawn)
Solution: class 1

Exercise: Threshold test, solvation free energy, 298 K < -7 kcal/mol: CI
Solution: class 0

Exercise: Threshold test, solvation free energy, 298 K < -7 kcal/mol: O=C(O)c1cc([N+](=O)[O-])ccc1Cl
Solution: class 1

Exercise: Threshold test, solvation free energy, 298 K < -7 kcal/mol: CCC(C)CC
Solution: class 0

Exercise: Threshold test, solvation free energy, 298 K < -7 kcal/mol: O=C(O)c1cccc([N+](=O)[O-])c1
Solution: class 1

Exercise: Threshold test, solvation free energy, 298 K < -7 kcal/mol: O=c1[nH]c2ccccc2n1C1CCN(CCCC(c2ccc(F)cc2)c2ccc(F)cc2)CC1
Solution: class 1

Exercise: Threshold test, solvation free energy, 298 K < -7 kcal/mol: C[N+](=O)[O-]
Solution: class 0

Exercise: Threshold test, solvation free energy, 298 K < -7 kcal/mol: CCCCC
Solution: class 0

Exercise: Threshold test, solvation free energy, 298 K < -7 kcal/mol: C=C(C)C
Solution: class 0

Exercise: Threshold test, solvation free energy, 298 K < -7 kcal/mol: O=[N+]([O-])c1cccc2ccccc12
Solution: class 1

Exercise: Threshold test, solvation free energy, 298 K < -7 kcal/mol: CC(C)C(C)C(C)C
Solution: class 0

Exercise: Threshold test, solvation free energy, 298 K < -7 kcal/mol: CC(F)F
Solution: class 0

Exercise: Threshold test, solvation free energy, 298 K < -7 kcal/mol: NC(=O)c1ccccc1O
Solution: class 1

###

# measurement.description: solvent given as SMILES
# assay.context: in CCCCCCCCCCCCO
experimental.readout: solvation free energy, 298 K (kcal/mol)
Please give a number only; it is taken to be in kcal/mol.

Exercise: Query solvation free energy, 298 K for CC(C)C(C)C
Solution: -3.07

Exercise: Query solvation free energy, 298 K for CCCCCCCC
Solution: -4.65

Exercise: Query solvation free energy, 298 K for CCCCCCC
Solution: -3.99

Exercise: Query solvation free energy, 298 K for CCCCCC
Solution: -3.31

###

Please provide measured solvation free energy, 298 K for the entries that follow.
# measurement.description: solvent given as SMILES
# assay.context: in CN(C)P(=O)(N(C)C)N(C)C
Please give a number only; it is taken to be in kcal/mol.

Exercise: Query solvation free energy, 298 K for CCCCCCC
Solution: -3.67

Exercise: Query solvation free energy, 298 K for CCO
Solution: -6.13

Exercise: Query solvation free energy, 298 K for CCCCC
Solution: -2.39

Exercise: Query solvation free energy, 298 K for C[N+](=O)[O-]
Solution: -5.68

Exercise: Query solvation free energy, 298 K for C=CC
Solution: -1.39

Exercise: Query solvation free energy, 298 K for CCCCCCCCC
Solution: -4.86

Exercise: Query solvation free energy, 298 K for CC=C(C)C
Solution: -2.61

Exercise: Query solvation free energy, 298 K for CCCCCCCC
Solution: -4.26

Exercise: Query solvation free energy, 298 K for CCCCCC
Solution: -2.98

Exercise: Query solvation free energy, 298 K for CC(C)CCC(C)C
Solution: -3.84

Exercise: Query solvation free energy, 298 K for CC(C)C(C)C(C)C
Solution: -3.97
